Numbers sourced from patent US20260242735A1.

Listed here are binders together with their documented Mean % WT Binding.
assay.target: human CD33 Y358A (human, UniProt P20138 18-364)
Sequence (P20138 18-364 Y358A limits assumed): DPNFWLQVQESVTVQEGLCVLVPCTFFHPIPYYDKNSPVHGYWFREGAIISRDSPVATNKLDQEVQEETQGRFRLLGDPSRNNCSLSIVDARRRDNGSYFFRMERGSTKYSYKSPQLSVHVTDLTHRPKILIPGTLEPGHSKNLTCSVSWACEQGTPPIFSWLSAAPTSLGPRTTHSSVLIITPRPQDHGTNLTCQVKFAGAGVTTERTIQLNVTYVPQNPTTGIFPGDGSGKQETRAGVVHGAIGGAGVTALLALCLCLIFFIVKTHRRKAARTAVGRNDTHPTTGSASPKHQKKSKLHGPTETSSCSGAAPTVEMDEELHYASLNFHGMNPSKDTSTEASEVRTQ
method.description: flow cytometry, alanine scan

If you can, please state the reported Mean % WT Binding value of Refmab #4 (antibody, V domains shown, The alanine scan used IgG or Fab) VH: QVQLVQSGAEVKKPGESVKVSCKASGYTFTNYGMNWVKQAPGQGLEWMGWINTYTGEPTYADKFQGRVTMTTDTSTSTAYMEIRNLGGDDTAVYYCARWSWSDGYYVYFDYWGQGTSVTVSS VL: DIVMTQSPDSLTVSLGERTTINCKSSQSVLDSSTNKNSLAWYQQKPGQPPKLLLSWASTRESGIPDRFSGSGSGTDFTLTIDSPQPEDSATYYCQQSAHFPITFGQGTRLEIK .
109 % of WT

If you can, please state the reported Mean % WT Binding value of Refmab #3 (antibody, V domains shown, The alanine scan used IgG or Fab) VH: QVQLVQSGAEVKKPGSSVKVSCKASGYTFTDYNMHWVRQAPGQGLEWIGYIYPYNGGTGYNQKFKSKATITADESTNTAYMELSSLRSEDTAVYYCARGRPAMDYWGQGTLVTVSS VL: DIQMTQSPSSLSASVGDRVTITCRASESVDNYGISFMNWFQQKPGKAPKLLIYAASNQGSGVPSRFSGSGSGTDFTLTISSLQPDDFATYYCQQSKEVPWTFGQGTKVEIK .
140 % of WT

If you can, please state the reported Mean % WT Binding value of Refmab #1 (antibody, V domains shown, The alanine scan used IgG or Fab; also called hP67.6) VH: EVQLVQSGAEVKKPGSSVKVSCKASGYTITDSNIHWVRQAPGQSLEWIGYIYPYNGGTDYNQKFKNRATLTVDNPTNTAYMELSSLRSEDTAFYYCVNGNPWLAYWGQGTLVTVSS VL: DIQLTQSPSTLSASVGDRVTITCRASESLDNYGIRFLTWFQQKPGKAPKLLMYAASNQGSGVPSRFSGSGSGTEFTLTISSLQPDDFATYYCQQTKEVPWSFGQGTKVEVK .
76.1 % of WT

If you can, please state the reported Mean % WT Binding value of Refmab #2 (antibody, V domains shown, The alanine scan used IgG or Fab) VH: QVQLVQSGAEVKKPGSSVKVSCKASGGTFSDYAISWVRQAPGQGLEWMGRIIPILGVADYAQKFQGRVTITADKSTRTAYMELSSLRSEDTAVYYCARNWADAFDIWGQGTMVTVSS VL: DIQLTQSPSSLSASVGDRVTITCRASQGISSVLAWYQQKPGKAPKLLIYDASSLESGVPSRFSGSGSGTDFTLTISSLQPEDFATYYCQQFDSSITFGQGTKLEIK .
110 % of WT
